Provenance of the data: PubChem BioAssay (EPA / NIEHS)

method: APR_HepG2_MitoMass_72hr: Apredica 72-hour HepG2 Assay for Mitochondrial Mass (AID 2282924);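 further: MitoTracker Red CMXRos stain intensity per cell imaged as mitochondrial mass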
condition.info: high-content imaging, actives raise or lower the signal
Activity calls are given as the source filed them. How the source made its calls: active means hit-call score of the fitted dose curve at least 0.9, where 1 is the maximum; inactive means score below 0.9.
measured.parameter: AC50

Reference set, count: 6
>>> experimental_value("N#Cc1ccc(N(CC(N)=O)CC(F)(F)F)cc1C(F)(F)F")
"inactive"
>>> experimental_value("C[C@]12CCC(=O)C=C1CC[C@@H]1[C@@H]2CC[C@]2(C)C(=O)CC[C@@H]12")
"inactive"
>>> experimental_value("CC(c1ccc(O)cc1)(c1ccc(O)cc1)c1ccc(O)cc1")
"170 µM (active)"
>>> experimental_value("Nc1ccc(-c2ccc(N)cc2)cc1")
"inactive"
>>> experimental_value("CO/C=C(/C(=O)OC)c1ccccc1COc1cccc(C(F)(F)F)n1")
"0.638 µM (active)"
>>> experimental_value("O=C(N[C@H]1CN2CCC1CC2)c1cc2ccoc2cn1")
"inactive"

[in] Name the recorded AC50 for `CN(C)c1nc(=O)n(C2CCCCC2)c(=O)n1C` .
[out] inactive

[in] Similarly, `ClC1=C(Cl)[C@]2(Cl)[C@@H]3[C@@H]4C[C@@H]([C@H]5O[C@@H]45)[C@@H]3[C@@]1(Cl)C2(Cl)Cl` ?
[out] inactive

[in] Item: `Cc1ccccc1[N+](=O)[O-]`
[out] inactive

[in] And for C1CC2OC2CC1C1CO1 (configuration not stated) ?
[out] inactive

[in] Also CCC(C)c1cc([N+](=O)[O-])cc([N+](=O)[O-])c1O (configuration not stated) , if possible.
[out] 72.3 µM (active)

[in] # iterate: `CCSC(=O)N(CC)C1CCCCC1`
[out] inactive

###

Read-out: Human Leukocyte Antigen - DR isotype (HLADR), HLA-DRA (gene 3122)
method: BSK_BE3C_HLADR: BioMAP Diversity Plus: BE3C Assay for Human Leukocyte Antigen - DR isotype (HLADR) Biomarker Activity (AID 2283032)
condition.info: primary human bronchial epithelial cells; actives raise or lower the signal
Activity calls are given as the source filed them. How the source made its calls: active means hit-call score of the fitted dose curve at least 0.9, where 1 is the maximum; inactive means score below 0.9.
Lab note: assign the record to one of active, inactive

Solved cases (6 shown):
>>> class_assignment("Clc1ccc(C(Cl)(Cl)Cl)cc1")
"inactive"
>>> class_assignment("C1CC2OC2CC1C1CO1 (stereo not given)")
"inactive"
>>> class_assignment("ClC(Cl)=C(c1ccc(Cl)cc1)c1ccc(Cl)cc1")
"inactive"
>>> class_assignment("C[C@]12CCC(=O)C=C1CC[C@@H]1[C@@H]2CC[C@]2(C)C(=O)CC[C@@H]12")
"inactive"
>>> class_assignment("Nn1cnnc1")
"inactive"
>>> class_assignment("CC(C)(c1ccccc1)c1ccc(O)cc1")
"active"

Now take the following molecule into account.
[in] Could you please tell me the result logged for `c1ccc(-c2ccccc2)cc1` in this assay?
[out] inactive

###

Read-out: C-C motif chemokine 2 (Homo sapiens)
method: BSK_KF3CT_MCP1: BioMAP Diversity Plus: KF3CT Assay for Monocyte Chemoattractant Protein 1 (MCP1/CCL2) Biomarker Activity (AID 2283073)
condition.info: primary human keratinocytes with fibroblasts; actives raise or lower the signal
The source made the active and inactive calls. The calls were made as follows: active = hit-call score of the fitted dose curve at least 0.9, where 1 is the maximum; inactive = score below 0.9.
measured.parameter: outcome

>>> experimental_value("O=S(=O)(O)C(F)(F)C(F)(F)C(F)(F)C(F)(F)F")
"inactive"
>>> experimental_value("C[C@]12CCC(=O)C=C1CC[C@@H]1[C@@H]2CC[C@@]2(C)[C@H]1CC[C@]2(C)O")
"inactive"
>>> experimental_value("O=NN(c1ccccc1)c1ccccc1")
"inactive"

###

system: Estrogen receptor (Homo sapiens) (UniProt P03372)
Sequence (P03372 whole entry, looked up): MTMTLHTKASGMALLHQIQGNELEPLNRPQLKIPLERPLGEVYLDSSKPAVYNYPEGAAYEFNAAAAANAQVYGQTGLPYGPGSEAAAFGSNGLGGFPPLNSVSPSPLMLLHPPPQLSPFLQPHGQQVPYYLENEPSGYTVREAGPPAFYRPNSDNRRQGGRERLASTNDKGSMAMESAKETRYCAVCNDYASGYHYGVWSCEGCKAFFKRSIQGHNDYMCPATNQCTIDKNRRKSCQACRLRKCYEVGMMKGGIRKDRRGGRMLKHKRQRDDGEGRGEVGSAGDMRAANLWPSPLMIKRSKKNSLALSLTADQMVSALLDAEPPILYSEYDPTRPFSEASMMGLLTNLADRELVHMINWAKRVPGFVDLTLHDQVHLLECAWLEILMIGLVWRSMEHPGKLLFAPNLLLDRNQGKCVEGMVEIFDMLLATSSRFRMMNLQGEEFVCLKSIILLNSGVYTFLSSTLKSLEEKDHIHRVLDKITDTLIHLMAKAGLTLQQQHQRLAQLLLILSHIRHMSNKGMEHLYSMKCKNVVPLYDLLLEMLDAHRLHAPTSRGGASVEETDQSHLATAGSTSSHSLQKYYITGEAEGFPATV
method: OT_ER_ERaERa_1440: Odyssey Thera (OT) 24-hour HEK293T Protein-Complementation Assay for Estrogen Receptor-alpha/-alpha Homodimer (AID 2283349);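 further: hits raise fluorescence above DMSO for agonists and antagonists alike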
Calls of active or inactive are those of the source. The calls were made as follows: active = hit-call score of the fitted dose curve at least 0.9, where 1 is the maximum; inconclusive = response in the unintended direction; inactive = score below 0.9.
Log the outcome using a class from active, inactive

Consider the worked cases shown below.
>>> class_assignment("Nn1cnnc1")
"inactive"
>>> class_assignment("Cc1cc(-c2ccc(N)c(C)c2)ccc1N")
"inactive"
>>> class_assignment("ClC1=C(Cl)[C@]2(Cl)[C@@H]3[C@@H](Cl)[C@H]4O[C@H]4[C@@H]3C1(Cl)C2(Cl)Cl")
"inactive"

[in] Record request — test call for `c1cc2ccc3cccc4ccc(c1)c2c34`
[out] inactive

[in] Repeat for the following compound: `Cc1ccc(O)c(C)c1`
[out] inactive

[in] Continue with `N#Cc1ccc(N(CC(N)=O)CC(F)(F)F)cc1C(F)(F)F`
[out] inactive

###

method: ATG_CMV_CIS: Attagene CIS-FACTORIAL HepG2 Assay for human CMV (Internal Marker) (AID 2282928);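 further: endpoint acts as a background internal control marker rather than a target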
condition.info: HepG2 CMV promoter reporter, transcription factor profiling; actives raise or lower the signal
The source made the active and inactive calls. The calls were made as follows: active = hit-call score of the fitted dose curve at least 0.9, where 1 is the maximum; inactive = score below 0.9.
Write down the outcome that applies. Available outcomes: t (active), f (inactive)

Look over these answered cases.
>>> class_assignment("Cc1ccccc1[N+](=O)[O-]")
"f"
>>> class_assignment("c1ccc(-c2ccccc2)cc1")
"f"
>>> class_assignment("CCSC(=O)N(CC)C1CCCCC1")
"f"

[in] Assay result, entry `ClC1=C(Cl)[C@]2(Cl)[C@@H]3[C@@H](Cl)[C@H]4O[C@H]4[C@@H]3C1(Cl)C2(Cl)Cl` — outcome?
[out] t

###

system: Cellular tumor antigen p53 (Homo sapiens) (UniProt P04637)
Sequence (P04637 whole entry, looked up): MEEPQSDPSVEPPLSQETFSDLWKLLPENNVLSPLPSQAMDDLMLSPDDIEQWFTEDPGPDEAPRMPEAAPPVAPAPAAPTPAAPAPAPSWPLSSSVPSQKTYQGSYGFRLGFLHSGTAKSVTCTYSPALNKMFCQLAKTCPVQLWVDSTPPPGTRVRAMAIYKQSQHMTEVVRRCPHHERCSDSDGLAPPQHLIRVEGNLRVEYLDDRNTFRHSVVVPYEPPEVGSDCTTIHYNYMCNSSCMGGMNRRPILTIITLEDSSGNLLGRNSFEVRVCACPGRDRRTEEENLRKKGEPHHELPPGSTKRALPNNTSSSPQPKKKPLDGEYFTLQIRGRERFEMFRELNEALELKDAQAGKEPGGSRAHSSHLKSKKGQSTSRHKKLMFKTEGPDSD
method: TOX21_p53_BLA_p2_ratio: Tox21 HCT-116 p53 Agonism Beta-lactamase Assay, Ratio, Phase 2 (AID 2283592)
Inconclusive results are not listed. Active and inactive are the calls of the source. Rule for the calls: active = hit-call score of the fitted dose curve at least 0.9, where 1 is the maximum; inconclusive = response in the unintended direction; inactive = score below 0.9.
One label from this list, please: 1.0 (active), 0.0 (inactive)

Before answering, review these 5 worked examples.
>>> class_assignment("Cc1ccc(O)c(C)c1")
0.0
>>> class_assignment("Cc1cccc([N+](=O)[O-])c1")
0.0
>>> class_assignment("COS(=O)(=O)OC")
0.0
>>> class_assignment("C1CC2OC2CC1C1CO1 (stereo not given)")
0.0
>>> class_assignment("CC(c1ccc(O)cc1)(c1ccc(O)cc1)c1ccc(O)cc1")
1.0

[in] Recorded call for `CCCN(CCC)N=O` ?
[out] 0.0

[in] Then this molecule: CC(C)C(=O)OCC(C)(C)C(OC(=O)C(C)C)C(C)C (stereo not given)
[out] 0.0

[in] What about `CN(C)CCO` ?
[out] 0.0

[in] One more molecule: `Clc1ccc(Cl)cc1`
[out] 0.0

[in] Likewise for `COc1ccc(O)c(C(C)(C)C)c1` ?
[out] 0.0

[in] Can you check `O=S(=O)(O)C(F)(F)C(F)(F)C(F)(F)C(F)(F)F` next?
[out] 0.0

[in] And `O=S(=O)(O)C(F)(F)C(F)(F)C(F)(F)C(F)(F)C(F)(F)C(F)(F)F` ?
[out] 0.0

[in] Try this molecule too: `O=C(O)C(F)(F)C(F)(F)C(F)(F)C(F)(F)C(F)(F)C(F)(F)C(F)(F)C(F)(F)F`
[out] 0.0

[in] Ok, now `C=CC(N)=O`
[out] 0.0

[in] Then what about the molecule `Nn1cnnc1` ?
[out] 0.0

###

system: Estrogen receptor (Homo sapiens)
method: ATG_hERa_XSP1: Attagene TRANS-FACTORIAL Multi-Species (XSP1) HepG2 Assay for human Estrogen Receptor (ESR1) (AID 2283780)
Records with an inconclusive call do not appear. The source made the active and inactive calls. Rule for the calls: active = hit-call score of the fitted dose curve at least 0.9, where 1 is the maximum; inconclusive = response in the unintended direction; inactive = score below 0.9.
measured.parameter: AC50

>>> experimental_value("C[C@]12CCC(=O)C=C1CC[C@@H]1[C@@H]2CC[C@@]2(C)[C@H]1CC[C@]2(C)O")
"1.17 nM (active)"

[in] I am curious: what AC50 value has been reported for `C[C@]12CCC(=O)C=C1CC[C@@H]1[C@@H]2CC[C@]2(C)C(=O)CC[C@@H]12` ?
[out] 3.35 nM (active)

[in] Moving on to the next molecule: `CC(C)(c1ccccc1)c1ccc(O)cc1`
[out] 300 nM (active)

###

method: APR_HepG2_NuclearSize_72hr: Apredica 72-hour HepG2 Assay for Nuclear Size (AID 2282925)
condition.info: high-content imaging, actives raise or lower the signal
Active and inactive are the calls of the source. Rule for the calls: active = hit-call score of the fitted dose curve at least 0.9, where 1 is the maximum; inactive = score below 0.9.
measured.parameter: outcome

Use the examples below as a reference point.
>>> experimental_value("Cc1ccccc1CO[C@@H]1C[C@@]2(C(C)C)CC[C@]1(C)O2")
"inactive"
>>> experimental_value("CCOCCOC(C)=O")
"inactive"
>>> experimental_value("C=CC(=O)NCNC(=O)C=C")
"inactive"
>>> experimental_value("CC(C)C(=O)OCC(C)(C)C(OC(=O)C(C)C)C(C)C (stereo unspecified)")
"inactive"
>>> experimental_value("O=S(=O)(O)C(F)(F)C(F)(F)C(F)(F)C(F)(F)C(F)(F)C(F)(F)F")
"inactive"

Next up:
[in] Bench note: what outcome did `ClC1=C(Cl)[C@]2(Cl)[C@@H]3[C@@H](Cl)[C@H]4O[C@H]4[C@@H]3C1(Cl)C2(Cl)Cl` show?
[out] inactive
